System under test: T1, 4H464-AA
T1 chain: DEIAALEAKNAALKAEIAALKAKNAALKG
Assay overview: two-hybrid library CCmax;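 note: natural log of median RNA to DNA barcode read ratio; higher means stronger binding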
Condition info: mean of both orientations
Parameter measured: interaction score

// known answers, use as guide
Binder	Parameter measured	Endpoint value
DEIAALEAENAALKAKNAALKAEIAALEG [4H249-AA]	interaction score	-1.77
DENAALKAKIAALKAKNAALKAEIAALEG [4H1913-AA]	interaction score	-0.535

[A] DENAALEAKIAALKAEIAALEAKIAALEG [4H1349-AA]
[B] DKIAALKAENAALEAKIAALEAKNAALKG [4H2728-AA]
Please indicate which has the smaller reported interaction score: A , or B . Answer by quoting the chosen item's label. A
(A: -0.554, B: 0.651)
